# System: DMS 273 small cell lung
# Assay Protocol: NCI tumour cell line growth inhibition, 48 h
Where a SMILES comes first, the peptide text is derived from it. [ ]: non-standard residue; d: D form. 2Nal = N[CH](Cc1ccc2ccccc2c1)C(=O)O
Items are presented alongside their recorded TGI.

Some compounds with known TGI results, for comparison:
Compound | TGI
COc1cc2c(c(OC(C)=O)c1OC(C)=O)-c1ccc(SC)c(=O)cc1C(NC(C)=O)CC2 (stereo not given) | > 100 µM
Cn1nc(-c2ccccc2)c(C(=O)/C=C/c2ccc(F)cc2)c(N2CCOCC2)c1=O | 53 µM
O=C(O)CCSC(=O)Nc1ccccc1Cl | > 100 µM
CC(C)C(NC(=O)C(CCCCN)NC(=O)C(Cc1c[nH]c2ccccc12)NC(=O)C(Cc1ccc(O)cc1)NC(=O)C(CS)NC(=O)C(N)Cc1ccc2ccccc2c1)C(=O)NC(CS)C(=O)NC(C(N)=O)C(C)O (stereo not given) (H-[2Nal]CYWKVCT-NH2; configuration not given here) | > 100 µM

--- query ---
Query :: If you can, please state the reported TGI value of `CC(=O)O/N=C(Cl)/C(Cl)=N/OC(C)=O` .
Result :: > 100 µM

* * *

# Test system: M14 melanoma
# Assay Protocol: NCI tumour cell line growth inhibition, 48 h
Items are presented alongside their recorded TGI.
Reply with just the number (in µM).

Some molecules with known TGI results, for comparison:
Molecule | Assayed Target | Assay Endpoint | Reported
Cc1cn2c(/C=C3/C(=O)Nc4ccc(F)cc43)c(C)nc2s1 | M14 melanoma | TGI | 17
CN(C)Cc1cc(N=Nc2ccc(Cl)cc2)ccc1O | M14 melanoma | TGI | 53.1
C[C@]12CC/C(=N\OCCN3CCCCC3)C=C1CCC1C2CC[C@@]2(C)C1CC[C@]2(C)O (some centres undefined) | M14 melanoma | TGI | 37.7
CCN(CC)CC(C)(C)C(=O)/C=C/c1ccc(/C=C/C(=O)C(C)(C)CN(CC)CC)cc1 | M14 melanoma | TGI | 2.46
N#Cc1cc(NC(=O)c2ccccc2)c(=O)n2c1[nH]c1ccccc12 | M14 melanoma | TGI | 76.9
CCN(CC)CCNc1ccc(C)c2sc3ccccc3c(=O)c12 | M14 melanoma | TGI | 3.36

Query :: If you can, please state the reported TGI value of C=C1CC(CN2CCC(=O)NC2=O)(c2ccccc2)OC1=O (centres undefined) .
Result :: 12.8

Query :: If you can, please state the reported TGI value of COc1ccc2c(c1)N(CCO)C1=C(C(=O)OC1)C2c1ccccc1 (centres undefined) .
Result :: 4.65

* * *

# Test system: SNB-78 CNS
# Assay Protocol: NCI tumour cell line growth inhibition, 48 h
Items are presented alongside their recorded TGI.

Some molecules with known TGI results, for comparison:
Molecule | TGI
COc1cc2c(c(OC(C)=O)c1OC(C)=O)-c1ccc(SC)c(=O)cc1C(NC(C)=O)CC2 (centres undefined) | > 100 µM
COc1cc2c(cc1OC)c1c(OC)c(OC)cc3c1c1c2sc(=S)n1CC3 | > 100 µM
COc1ccc(/C=c2/sc3n(c2=O)NC(c2ccc(Cl)cc2)NN=3)cc1 (centres undefined) | > 100 µM

--- query ---
Query :: If you can, please state the reported TGI value of `CCN(CC)CC(C)(C)C(=O)/C=C/c1ccc(/C=C/C(=O)C(C)(C)CN(CC)CC)cc1` .
Result :: 4.64 µM

Source listed as PubChem BioAssay (NCI).
